# Test system: DU-145 prostate
# TEST: NCI-60 one-dose screen, 48 h (100 = growth as untreated, 0 = no growth, -100 = all killed)
# RECORDED_CONDITIONS: 10 µM unless noted
The panel holds about 83,000 compounds, 20% with a hit somewhere; the sample as a whole holds those more often. Active and inactive are the calls of the source. How the source made its calls: active means growth percent below 10; inactive means the rest.
RECORDED_ENDPOINT: growth

Quick check: growth of CC[C@H](Nc1ncnc2nc[nH]c12)c1nc2cccc(CC(=O)c3ccc(C(=O)NO)cc3)c2c(=O)n1-c1ccccc1 ?
101% (inactive)

Further, for O=C(Nc1cc(Nc2ncccc2-c2ncnc3nc[nH]c23)ccc1F)c1cc(C(F)(F)F)cc(C(F)(F)F)c1 ?
20.9% (inactive)

Further, for O=C(CCCCCCCCC(=O)Nc1cccc(C2=NCCN2)c1)Nc1cccc(C2=NCCN2)c1 ?
99.8% (inactive)

Further, for COc1cc(/C=C/C(=O)/C=C/c2cc3ccc(Cl)cc3n(Cc3ccccc3)c2=O)ccc1O ?
-35.1% (active)

Further, for O=C(O)c1cn(C2CC2)c2cc(N3CCN(Cc4nnc(Nc5ccccc5)o4)CC3)c(F)cc2c1=O ?
103% (inactive)

Further, for c1ccc(-c2n(Cc3ccc4ccccc4n3)cc[n+]2Cc2ccc3ccccc3n2)cc1 ?
65.8% (inactive)

Further, for CN1CCN(CC#CCOC(=O)CNC(=O)[C@]23CCC(C)(C)C[C@H]2C2=CC[C@@H]4[C@@]5(C)CC[C@H](O)C(C)(C)[C@@H]5CC[C@@]4(C)[C@]2(C)CC3)CC1 ?
96.7% (inactive)

Further, for COC(=O)c1ccc2c(c1)n(Cc1ccc3ccccc3c1)c[n+]2Cc1ccc2ccccc2c1 ?
72.5% (inactive)

Further, for c1ccc(-c2n(Cc3ccc4ccccc4n3)cc[n+]2Cc2ccc3ccccc3c2)cc1 ?
28.2% (inactive)

Further, for O=C(O)C(C(=O)O)c1cccc2ccccc12 ?
105% (inactive)

Further, for CC[C@]12C=CCN3CC[C@@]4(c5ccc(OC)cc5N(C)[C@H]4[C@@](O)(C(=O)OC)[C@@H]1OC(=O)CCC(=O)O[C@H]1CC[C@H]4[C@@H]5CC[C@H]6CC(=O)CC[C@]6(C)[C@H]5CC[C@]14C)[C@@H]32 ?
43.7% (inactive)

Further, for N#Cc1ccc(Oc2ccc3ccc(=O)oc3c2)cc1 ?
107% (inactive)

Further, for COc1ccc2nc(-c3ccc(OC)c(OC)c3)cc(-c3nnc(SCC(=O)Nc4ccc(C(C)=O)cc4)o3)c2c1 ?
108% (inactive)

Further, for COc1cc(NC(=O)Nc2cnc(Nc3ccc(N4CCOCC4)cc3)nc2Oc2ccc(C(F)(F)F)cc2)cc(OC)c1 ?
118% (inactive)

Further, for Cc1ccccc1NC(=O)c1sc2nc(C)c(C(C)O)cc2c1N (centres undefined) ?
81.8% (inactive)

Further, for O=C(/C(=C/c1ccc([N+](=O)[O-])cc1)SCc1ccc(F)cc1)c1ccc(Cl)cc1 ?
87.5% (inactive)

Further, for C=C(C)[C@@H]1CC[C@]2(C(=O)OCCOCCOCC[P+](c3ccccc3)(c3ccccc3)c3ccccc3)CC[C@]3(C)[C@H](CC[C@@H]4[C@@]5(C)CC[C@H](OC(=O)C(Cl)Cl)C(C)(C)[C@@H]5CC[C@]43C)[C@@H]12 ?
15.5% (inactive)

Further, for O=C(CN1N=C(c2ccc(F)cc2)CCC1=O)Nc1nc2ccccc2s1 ?
84.6% (inactive)

Further, for C=C1C(=O)O[C@H]2[C@H]1CC/C(COC(=O)NCC(=O)Nc1ccc(OC)c(C(N)=O)c1O)=C\CC[C@@]1(C)O[C@@H]21 ?
66.4% (inactive)

Further, for Cc1ccc(-c2nc(C#N)c(S(=O)(=O)N(C)CCO)o2)cc1 ?
90.2% (inactive)

Further, for CCOC(=O)c1ccc(Nc2ncnc3ccc(NC(=O)c4ccccc4)cc23)cc1 ?
105% (inactive)

Further, for CCOC(=O)/C(=C/c1c(-c2ccccc2)[nH]c2ccccc12)C(=O)c1ccc(Cl)cc1 ?
65.9% (inactive)

Further, for FC(F)(F)c1ccc2c(Nc3cccc(C4CC(c5ccccc5)=NN4c4ccc(Cl)cc4)c3)ccnc2c1 (centres undefined) ?
47.7% (inactive)

Further, for COC(=O)/C=C1\SC(=Nc2cccc(OC)c2)N(CCc2c[nH]c3ccccc23)C1=O ?
69.3% (inactive)

Further, for C=C(C)[C@@H]1CC[C@]2(C(N)=O)CC[C@]3(C)[C@H](CC[C@@H]4[C@@]5(C)CCCNC(C)(C)[C@@H]5CC[C@]43C)[C@@H]12 ?
92.4% (inactive)

Further, for CCSc1ccc(C2C(Br)C(=O)N2c2cc(OC)c(OC)c(OC)c2)cc1 (centres undefined) ?
12.3% (inactive)

Further, for C=C1C(=O)O[C@H]2[C@H]1CC/C(COC(=O)Nc1nc3ccccc3[nH]1)=C\CC[C@@]1(C)O[C@@H]21 ?
36.3% (inactive)

Further, for CCN1CCN(Cc2ccc(NC(=O)c3cccc(C#Cc4cccc5[nH]nc(N)c45)c3)cc2C(F)(F)F)CC1 ?
-70% (active)

Further, for C[C@]12CC[C@@H]3c4ccc(O)cc4CC[C@H]3[C@@H]1C[C@H](O)C2 ?
93.9% (inactive)

Further, for CO[C@@]12C=C[C@@]34CCC(=O)N3c3ccccc3[C@@H](O1)C4C2 ?
111% (inactive)

Further, for COc1ccc(/C(=N\O)c2cc(C)c(OC)c(C)c2)cc1O ?
29.4% (inactive)

Further, for COc1cc2c(cc1OCCCOc1cc3c(cc1OC)C(=O)N1CC(F)(F)C[C@H]1C=N3)N=C[C@@H]1CC(F)(F)CN1C2=O ?
17% (inactive)

Further, for CN1CC=C(c2cc(NC(=O)Nc3ccc(Oc4ccnc(NC(=O)C5CC5)c4)c(F)c3)cc(C(F)(F)F)c2)CC1 ?
9.52% (active)

Further, for O=C1C(=O)c2c(nc3ccc(C(F)(F)F)cn23)-c2ccccc21 ?
-96.3% (active)
